Hey, just so you know, these numbers are from patent US20240150440A1.

molecular target: T1, SARS-CoV-2 Beta Variant RBD (SARS-CoV-2 Beta variant); assay: ELISA, RBD coated
T1 construct: domain: RBD; coated on ELISA plates
pEC50: −log10 of the molar value.
Heads up, the class ranges for pEC50 are range A: < 7; range B: ≥ 7 and < 8; range C: ≥ 8

{"BINDER": "PP1112 MBP-5HVZ-PAPA-RN-28-H6 (VHH, Form: Dimer) VHH: QVQLVESGGGLVQPGGSLRLSCAASGSQFSHNLMSWFRQAPGKQREFVAAITSFGSTGYADSVKGRFTISRDNAKNTVYLQMNSLKPEDTAVYYCAALSSEDTSHYPRNYWGQGTQVTVSS", "ASSIGNED LABEL": "range C"}
{"BINDER": "PP912 MBP-5HVZ-S2b-G8-H6 (VHH, Form: Dimer) VHH: QVQLVESGGGLVQPGGSLRLSCAASGSIQSYEAMHWFRQAPGKAREWVAVITWGDSTQYGDSVKGRFTISRDNAKNTVYLQMNSLKPEDTAVYYCAADVRQGYSSWGQGTQVTVSS", "ASSIGNED LABEL": "range A"}
{"BINDER": "PP914 MBP-5HVZ-S3a-H1-H6 (VHH, Form: Dimer) VHH: QVQLVESGGGLVQPGGSLRLSCAASGGIYSPYSMHWFRQAPGKAREWVAGIVGGGGTTYSDSVKGRFTISRDNAKNTVYLQMNSLKPEDTAVYYCNANYQEYDEYDYWGQGTQVTVSS", "ASSIGNED LABEL": "range B"}
{"BINDER": "PP1107 MBP-5HVZ-PAPA-RN-22-H6 (VHH, Form: Dimer) VHH: QVQLVESGGGLVQPGGSLRLSCAASGSISEINLLHWFRQAPGKQREWVATMTSGGSTDYADSVKGRFTISRDNAKNTVYLQMNSLKPEDTAVYYCAADEFTKYGHGRYWGQGTQVTVSS", "ASSIGNED LABEL": "range C"}
{"BINDER": "PP1098 MBP-5HVZ-PAPA-RN-9-H6 (VHH) VHH: QVQLVESGGGLVQPGGSLRLSCAASGLRFAMTEMAWFRQAPGKQREFVALITEGGSGSYGDSVKGRFTISRDNAKNTVYLQMNSLKPEDTAVYYCAALHYTEGANTESATTFDYWGQGTQVTVSS", "ASSIGNED LABEL": "range B"}
{"BINDER": "PP1106 MBP-5HVZ-PAPA-RN-21-H6 (VHH, Form: Dimer) VHH: QVQLVESGGGLVQPGGSLRLSCAASGLQTSDNAMHWFRQAPGKNRELVAGLTSGTSRNYGDSVKGRFTISRDNAKNTVYLQMNSLKPEDTAVYYCAAFPDVGDASSIGFVYWGQGTQVTVSS", "ASSIGNED LABEL": "range C"}
{"BINDER": "PP907 MBP-5HVZ-S1b-E11-H6 (VHH, Form: Dimer) VHH: QVQLVESGGGLVQPGGSLRLSCAASGSYASIASMHWFRQAPGKEREFVAGVTSGGSTNYGDSVKGRFTISRDNAKNTVYLQMNSLKPEDTAVYYCNALAGANYESQWEEYNYWGQGTQVTVSS", "ASSIGNED LABEL": "range A"}
{"BINDER": "PP1115 MBP-5HVZ-PAPA-RN-31-H6 (VHH, Form: Dimer) VHH: QVQLVESGGGLVQPGGSLRLSCAASGSTGSDYAMHWFRQAPGKDREWVAGISSYGSDSYGDSVKGRFTISRDNAKNTVYLQMNSLKPEDTAVYYCAALQASAGAGYYYDYWGQGTQVTVSS", "ASSIGNED LABEL": "range A"}
{"BINDER": "PP911 MBP-5HVZ-S2b-F7-H6 (VHH, Form: Dimer) VHH: QVQLVESGGGLVQPGGSLRLSCAASGSTLSNNAMHWFRQAPGKAREFVAAIGSSDSTDYKDSVKGRFTISRDNAKNTVYLQMNSLKPEDTAVYYCTALLDSGPGEYNYWGQGTQVTVSS", "ASSIGNED LABEL": "range A"}
